# Tested on: SGC-7901 (human gastric cancer cells)
# test-summary: MTT cancer cell growth inhibition
# Type: cell-based
# experimental-context: Homo sapiens, SGC-7901, 72 h, MTT, 72 hours incubation, SGC-7901 cells; read-out: GI50 SGC-7901
Classes by GI50: zone 1: < 30 nM; zone 2: ≥ 30 nM and < 40 nM; zone 3: ≥ 40 nM

Field: example entries. Status: answers known.
C/C=C1\NC(=O)c2cccc(n2)CNC(=O)C[C@@H](/C=C/CCSC(=O)CCCCCCC)OC(=O)[C@H](CCSC)NC1=O zone 1
C=C1NC(=O)c2cccc(n2)CNC(=O)C[C@@H](/C=C/CCS)OC(=O)[C@H](C(C)C)NC1=O zone 2
C/C=C1\NC(=O)c2ccc(F)c(n2)CNC(=O)C[C@@H](/C=C/CCS)OC(=O)[C@H](C(C)C)NC1=O zone 2
C/C=C1\NC(=O)c2cccc(n2)CNC(=O)C[C@@H](/C=C/CCSC(=O)CCCC)OC(=O)[C@H](C(C)C)NC1=O zone 2
C/C=C1\NC(=O)c2ccc(F)c(n2)CNC(=O)C[C@@H](/C=C/CCSC(=O)CCCCCC)OC(=O)[C@H](C(C)C)NC1=O zone 3
C/C=C1\NC(=O)c2nc(ccc2SC)CNC(=O)C[C@@H](/C=C/CCSC(=O)CCCCCCC)OC(=O)[C@H](C)NC1=O zone 2
C/C=C1\NC(=O)c2ccc(F)c(n2)CNC(=O)C[C@@H](/C=C/CCS)OC(=O)[C@H](C)NC1=O zone 3
C/C=C1\NC(=O)c2cccc(n2)CNC(=O)C[C@@H](/C=C/CCSC(=O)CCCCCC)OC(=O)[C@H](C(C)C)NC1=O zone 1
C/C=C1\NC(=O)c2cccc(n2)CNC(=O)C[C@@H](/C=C/CCS)OC(=O)[C@@H](C)NC1=O zone 1
CC(=O)SCC/C=C/[C@@H]1CC(=O)NCc2cc(F)cc(n2)C(=O)NC(=C(C)C)C(=O)N[C@@H](C(C)C)C(=O)O1 zone 1

Input: # bin lookup: classify "C/C=C1\NC(=O)c2ccc(SC)c(n2)CNC(=O)C[C@@H](/C=C/CCSC(=O)CCC)OC(=O)[C@H](C(C)C)NC1=O" by its GI50
Output: zone 3

Input: Form: Item = "C/C=C1\NC(=O)c2ccc(F)c(n2)CNC(=O)C[C@@H](/C=C/CCSC(C)=O)OC(=O)[C@H](C(C)C)NC1=O" ; Class = ?
Output: zone 3

Input: Class for "C/C=C1\NC(=O)c2nc(ccc2SC)CNC(=O)C[C@@H](/C=C/CCS)OC(=O)[C@H](C(C)C)NC1=O" ?
Output: zone 1
